# Test system: C. elegans
# condition_parameters: Table S2, C. elegans SS assay, 110 μM, 0 h, averages of 4 data points
property_label: Percentage of motility inhibition 0 h (%)
Record the value in %, omitting the unit from your answer.

-- ask Would you mind telling me what Percentage of motility inhibition 0 h value was observed for C=C1C[C@@]23CC[C@H]4[C@@](C)(CCC[C@@]4(C)C(=O)O[C@@H]4O[C@H](CO)[C@@H](O)[C@H](O[C@@H]5O[C@H](CO)[C@@H](O)[C@H](O)[C@H]5O)[C@H]4O[C@@H]4O[C@H](CO)[C@@H](O)[C@H](O)[C@H]4O)[C@@H]2CC[C@]1(O[C@@H]1O[C@H](CO)[C@@H](O)[C@H](O[C@@H]2O[C@H](CO)[C@@H](O)[C@H](O)[C@H]2O)[C@H]1O[C@@H]1O[C@H](CO)[C@@H](O)[C@H](O)[C@H]1O)C3 [Rebaudioside M] ?
-- reply 7

====

# System: C. elegans
# condition_parameters: Table S2, C. elegans SS assay, 110 μM, 0 h, averages of 4 data points
Measured Percentage of motility inhibition 0 h by item
Record the value in %, omitting the unit from your answer.

Solved entries:
# compound, Percentage of motility inhibition 0 h / %
data = [
    ("CCn1cc(C(=O)O)c(=O)c2ccc(C)nc21", 22),
    ("CC1(C)CC[C@]2(C(=O)O)[C@H](O)C[C@]3(C)C(=CC[C@@H]4[C@@]5(C)C[C@H](O)[C@H](O)C(CO)(CO)[C@@H]5CC[C@]43C)[C@@H]2C1", 0),
]

API: the following record is the query input.
-- ask So what Percentage of motility inhibition 0 h did COc1cc(-c2oc3cc(O)cc(O)c3c(=O)c2O[C@@H]2O[C@H](CO)[C@@H](O)[C@H](O)[C@H]2O[C@@H]2O[C@@H](C)[C@H](O)[C@@H](O)[C@H]2O)ccc1O [Isorhamnetin‐3‐O‐neohespeidoside] get with C. elegans?
-- reply 45

====

# System: C. elegans
# assay_name: microbe, parasite or virus in culture
# condition_parameters: Caenorhabditis elegans, 24 h, read-out: Percentage of motility inhibition 24 h, Table S2, C. elegans SS assay, 110 μM, 24 h, averages of 4 data points
Classify as follows. Reported inhibition at 110 µM greater than or equal to 10%: label 1. Reported inhibition at 110 µM below: label 0.

Example entries begin here.
# compound, class_label
records = [
    ("O=C(O)[C@@H]1CCCN1", "label 0"),
    ("O=C(O)c1cc(O)c(O)c(O)c1", "label 1"),
    ("Nc1ccn([C@@H]2CS[C@H](CO)O2)c(=O)n1", "label 0"),
    ("O=C(O)c1cc(=O)c2ccccc2[nH]1 [Transtorine]", "label 0"),
    ("O=c1c(O)c(-c2ccc(O)cc2)oc2cc(O)cc(O)c12", "label 1"),
    ("N[C@H]1C(O)O[C@H](CO)[C@@H](O)[C@@H]1O (some centres unmarked)", "label 0"),
    ("C=C(NC(=O)C(=C)NC(=O)c1csc(C2=N[C@@H]3c4csc(n4)[C@H]4NC(=O)c5csc(n5)[C@H]([C@](C)(O)[C@@H](C)O)NC(=O)[C@H]5CSC(=N5)/C(=C/C)NC(=O)[C@H]([C@@H](C)O)NC(=O)c5csc(n5)[C@]3(CC2)NC(=O)[C@H](C)NC(=O)C(=C)NC(=O)[C@H](C)NC(=O)[C@H]([C@@H](C)CC)N[C@@H]2C=Cc3c([C@H](C)O)cc(nc3[C@H]2O)C(=O)O[C@@H]4C)n1)C(N)=O", "label 1"),
    ("CC1COc2c(N3CCN(C)CC3)c(F)cc3c(=O)c(C(=O)O)cn1c23 (centres unmarked)", "label 0"),
    ("Fc1ccccc1-c1nc2ccn(Cc3ccc(-c4ccc(C(F)(F)F)cc4C(F)(F)F)nn3)cc-2n1", "label 1"),
    ("CC1(C)[C@@H](O[C@H]2O[C@H](C(=O)O)[C@@H](O)[C@H](O)[C@H]2O[C@@H]2O[C@H](C(=O)O)[C@@H](O)[C@H](O)[C@H]2O)CC[C@]2(C)[C@H]3C(=O)C=C4[C@@H]5C[C@@](C)(C(=O)O)CC[C@]5(C)CC[C@@]4(C)[C@]3(C)CC[C@@H]12", "label 0"),
]

-- ask I'd appreciate it if you could say whether "COc1ccc(NS(=O)(=O)c2ccc(N)cc2)nn1" has inhibition at 110 µM at least equal to 10%.
-- reply label 0

-- ask I'd appreciate it if you could say whether "O=C(O)[C@H]1C2CCC(CC2)[C@@H]1Nc1nc(-c2c[nH]c3ncc(F)cc23)ncc1F" has inhibition at 110 µM at least equal to 10%.
-- reply label 0
